assay: Growth inhibition of human COLO205 cells assessed as cell growth at 10 uM incubated for 48 hrs by sulforhodamine B assay relative to control; assay type: functional; conditions: COLO 205, 48 h, read-out: Activity
endpointName: growth at 10 µM (%)
Give bare numbers, in %.

List reported growth at 10 µM for each of these compounds:
1. C[C@@H]1NC(c2ccc(Cl)cc2)=Nc2nc3ccccn3c2C1=O
2. C[C@@H]1NC(c2ccc3ccccc3c2)=Nc2nc3ccccn3c2C1=O
3. C[C@@H]1NC(c2ccc(Cl)cc2Cl)=Nc2nc3ccccn3c2C1=O

[91.8, 22.8, 22.3]

The recorded growth at 10 µM for CC(C)(C)OC[C@@H]1NC(c2ccc(Br)cc2)=Nc2nc3ccccn3c2C1=O is 62.6

// data source = ChEMBL document CHEMBL3877299
